Tested on: K4 kissing-loop RNA reporter;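 further: bound reporter read as fluorescence of individual clusters on recovered sequencing chips by microscopy, with normalized cluster intensities fitted with a binding model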
Test: apparent KD of K4 kissing-loop reporter; higher = weaker reporter binding
Conditions: Eterna round: R107; input ligand: none
Cut-off 200 nM on apparent KD of K4 kissing-loop reporter, inclusive. At or above means true (1); below means false (0).

Determine whether this sequence has apparent KD of K4 kissing-loop reporter no lower than 200 nM: CCAUCGCUAUUCGAUACCAGUCAGGAGGUCUUUGGCCUCCUAAUGGAGUGAUGUUCCUUAGACCCUUGGCAGCGAAUAGUGAUGG [Theophylline B K4 14]
true (1)

Determine whether this sequence has apparent KD of K4 kissing-loop reporter no lower than 200 nM: UAAUAAAUUCCAGCUGUAUCACUCUUCGAAGGAGCGGACGAAAGUCCAGGUAGGUCGCGAAGAGUGAUGUUCUUUGCGGCGCUGG [Omei KL Arginine A Exc A v6]
false (0)

Determine whether this sequence has apparent KD of K4 kissing-loop reporter no lower than 200 nM: GUAUCGCUAGGAGGAUAUUUCGUUUUUCAUAGCAAUGGCUGUGCGGAGUGAUGUUCCGAUUUACCGGAAGAAGGCCUAGUGAUAC [FMN B 27]
false (0)

Determine whether this sequence has apparent KD of K4 kissing-loop reporter no lower than 200 nM: GGAUUCGGCGCGGCCGCCACUUCCGGUGGCUGGUGUCAUGGUGCGCGUGAGUGAUGUUUAUGUGGGAGGACCGGGCGUUGAGUCC [whbob_Ex_Tryp_B_w45]
true (1)

Determine whether this sequence has apparent KD of K4 kissing-loop reporter no lower than 200 nM: CCGGUUCCAACGCUGACUGAAGAACAUGAUACCAGUCGAGGACUCGACCCUUGGCAGCAUUAUAGAGUGAUGUUCGCUUCAGAAA [theeternabot_sameState_KL_Theo_A_15]
false (0)

Determine whether this sequence has apparent KD of K4 kissing-loop reporter no lower than 200 nM: AGACUACCACACUGUCAAUAGACAGUGAACUCGGAUAUGCUGAUAAGCAGAAGGAGUGAUGUUCCGAGGUAGUCAAUAAAAUAAU [FmnAX 13 C32+G66]
true (1)

Determine whether this sequence has apparent KD of K4 kissing-loop reporter no lower than 200 nM: AGUACAGACACGGCCGCCACUCAGAAGAAGACAGUAGUGAUGUUACUGAUGGUGAGAAUAAUAAAGAGGACCGGGUGUUGUGCAA [#04 K4 Tryptophan B Same State]
true (1)

Determine whether this sequence has apparent KD of K4 kissing-loop reporter no lower than 200 nM: GCGCGCGGCGGAGGAUAUAGCCGGUGAUCCGAGAAAGUGAGUGAUGUUUACGGAGUUGAGGAUAUGUUAGAAGGCCGCCGCGCGC [abcdefghijklmnopqrstuvwx]
true (1)

Determine whether this sequence has apparent KD of K4 kissing-loop reporter no lower than 200 nM: AGGCACGAGCAAGGAUAUCGAGUAGAGUGAUGUUCUGCCUGGGUUGGCUCGAAAGGGCCUUCCCAGCGAGAAGGUGCUCGUGCCU [#2 Same State - FMN A Attempt #14 (HarryS)]
true (1)

Determine whether this sequence has apparent KD of K4 kissing-loop reporter no lower than 200 nM: AGUGAUGUGGGAAGGAGCGGUUAAUGAAUUCAGUGAUGUUGAAGUGAUGCUGAAAUGAUGUGCCAGGUAGGUCGCCUAGAUGUUA [KL-XARG B28]
true (1)

Determine whether this sequence has apparent KD of K4 kissing-loop reporter no lower than 200 nM: `AAGCAGUCACGCGAAGCCAUCGAAGAUGGACGAGGACCGGUACGGCCGCCACUCGGAGUGAUGUUCCGAAGACUGCAAAAUAAAA`
true (1)

Attribution: the supplement of paper PMC9170038
